# Assay Target: HCV NS5B (Hepatitis C virus genotype 1b, UniProt Q9WMX2)
# Construct: The protein was expressed with an 18 amino acid C-terminal truncation to enhance the solubility; made in house; host or cells: E. coli BL21(DE3)
# Sequence (Q9WMX2 2420-2992): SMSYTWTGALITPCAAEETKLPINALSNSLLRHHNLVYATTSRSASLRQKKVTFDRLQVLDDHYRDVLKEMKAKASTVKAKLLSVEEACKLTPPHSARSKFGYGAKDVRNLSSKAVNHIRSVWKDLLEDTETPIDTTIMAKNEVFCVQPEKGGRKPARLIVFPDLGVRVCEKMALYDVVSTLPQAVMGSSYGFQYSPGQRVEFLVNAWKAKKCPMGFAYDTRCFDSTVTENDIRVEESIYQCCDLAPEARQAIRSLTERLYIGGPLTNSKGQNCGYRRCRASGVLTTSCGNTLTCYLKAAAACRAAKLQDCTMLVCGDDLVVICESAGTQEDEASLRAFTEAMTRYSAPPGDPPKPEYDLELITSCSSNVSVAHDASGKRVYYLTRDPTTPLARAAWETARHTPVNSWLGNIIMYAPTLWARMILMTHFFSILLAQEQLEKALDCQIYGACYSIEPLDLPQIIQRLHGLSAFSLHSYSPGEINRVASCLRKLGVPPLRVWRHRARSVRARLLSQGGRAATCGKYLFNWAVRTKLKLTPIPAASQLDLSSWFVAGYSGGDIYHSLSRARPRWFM
# Test Name: HCV NS5B RdRp enzyme assay (standard or modified)
# Assay type: biochemical
# Test Parameters: HCV NS5B RdRp genotype 1b; standard or modified enzyme assay not specified; read-out: IC50
pIC50: −log10 of the molar value.
Recorded pIC50 by entry

# Compound, Measured Quantity, Observed
records = [
    ("COc1ccc2c(c1)C1CC1(C(=O)N1CCCN(Cc3ccccc3)CC1)Cn1c-2c(C2CCCCC2)c2ccc(C(=O)NS(=O)(=O)N(C)C)cc21 (stereo not drawn)", "pIC50", "6.00 to 8.52"),
    ("COc1ccc2c(c1)C1CC1(C(=O)N1CCCC1CN1CCCC1)Cn1c-2c(C2CCCCC2)c2ccc(C(=O)NS(=O)(=O)N(C)C)cc21 (stereo not drawn)", "pIC50", "6.00 to 8.52"),
]

Kindly consider the entry below.
State its pIC50 for this compound: COc1ccc2c(c1)C1CC1(C(=O)N1CCN(C)CC1c1ccccc1)Cn1c-2c(C2CCCCC2)c2ccc(C(=O)NS(=O)(=O)N(C)C)cc21 (stereo not drawn) [drawing 44]
6.00 to 8.52

* * *

Measured IC50 values are reported for all entries that follow.
# Assay Target: HCV NS5B (Hepatitis C virus genotype 1b, UniProt Q9WMX2)
# Construct: The protein was expressed with an 18 amino acid C-terminal truncation to enhance the solubility; made in house; host or cells: E. coli BL21(DE3)
# Test Name: HCV NS5B RdRp enzyme assay (standard or modified)
# Assay type: biochemical
# Test Parameters: HCV NS5B RdRp genotype 1b; standard or modified enzyme assay not specified; read-out: IC50
# Description: HCV NS5B RdRp cloning, expression, and purification. The cDNA encoding the NS5B protein of HCV, genotype 1b, was cloned into the pET21a expression vector. The protein was expressed with an 18 amino acid C-terminal truncation to enhance the solubility. […] Standard HCV NS5B RdRp enzyme assay. […] Plates were read on a Packard Top Count NXT after >1 hr incubation at room temperature. […] IC50 values for compounds were determined using seven different [I]. […]

Provide only the value of recorded IC50 for COc1ccc2c(c1)C1CC1(C(=O)N(C)C1CCN(C)CC1)Cn1c-2c(C2CCCCC2)c2ccc(C(=O)NS(=O)(=O)N(C)C)cc21 (stereo not drawn)
3 to 1000 nM

Read off the recorded IC50 for COc1ccc2c(c1)C1CC1(C(=O)N(C)[C@@H]1CCCC[C@H]1N(C)C)Cn1c-2c(C2CCCCC2)c2ccc(C(=O)NS(=O)(=O)N(C)C)cc21 (stereo partly drawn)
3 to 1000 nM

Tell me its IC50 given COc1ccc2c(c1)C1CC1(C(=O)N(C)CC(=O)N1CCOCC1)Cn1c-2c(C2CCCCC2)c2ccc(C(=O)NS(=O)(=O)N(C)C)cc21 (stereo not drawn) as the entry.
3 to 1000 nM

For the compound COc1ccc2c(c1)C1C[C@]1(C(=O)N1CCN(C)CC1c1ccccc1)Cn1c-2c(C2CCCCC2)c2ccc(C(=O)NS(=O)(=O)C(C)C)cc21 (stereo partly drawn) [drawing 79] , give its reported IC50.
3 to 1000 nM

Give the value of IC50 reported for the following: COc1ccc2c(c1)C1CC1(C(=O)N1CCN(C)CC1c1ccccc1)Cn1c-2c(C2CCCCC2)c2ccc(C(=O)NS(=O)(=O)N(C)C)cc21 (stereo not drawn) [drawing 64]
3 to 1000 nM

Report IC50 for COc1ccc2c(c1)C1CC1(C(=O)N[C@@H]1CCC[C@H]1N(C)C)Cn1c-2c(C2CCCCC2)c2ccc(C(=O)NS(=O)(=O)N(C)C)cc21 (stereo partly drawn)
3 to 1000 nM

* * *

# Assay Target: HCV NS5B (Hepatitis C virus genotype 1b)
# Construct: The protein was expressed with an 18 amino acid C-terminal truncation to enhance the solubility; made in house; host or cells: E. coli BL21(DE3)
# Test Name: HCV NS5B RdRp enzyme assay (standard or modified)
# Assay type: biochemical
Overview of reported IC50 across a group of compounds:

// solved cases for IC50 follow
# Compound, Assay Target, Observed
records = [
    ("COc1ccc2c(c1)C1CC1(C(=O)NC1CC3CCC(C1)N3C)Cn1c-2c(C2CCCCC2)c2ccc(C(=O)NS(=O)(=O)N(C)C)cc21 (stereo not drawn)", "HCV NS5B (Hepatitis C virus genotype 1b)", "0.003 to 1 µM"),
    ("COc1ccc2c(c1)C1CC1(C(=O)N(C)C1CC3CCC1N3C)Cn1c-2c(C2CCCCC2)c2ccc(C(=O)NS(=O)(=O)N(C)C)cc21 (stereo not drawn)", "HCV NS5B (Hepatitis C virus genotype 1b)", "0.003 to 1 µM"),
]

Continue with the compound presented below.
Supply IC50 value. Item: COc1ccc2c(c1)C1CC1(C(=O)N[C@@H]1CC3CCN1CC3)Cn1c-2c(C2CCCCC2)c2ccc(C(=O)NS(=O)(=O)N(C)C)cc21 (stereo partly drawn)
0.003 to 1 µM

* * *

# Assay Target: HCV NS5B (Hepatitis C virus genotype 1b, UniProt Q9WMX2)
# Construct: The protein was expressed with an 18 amino acid C-terminal truncation to enhance the solubility; made in house; host or cells: E. coli BL21(DE3)
# Test Name: HCV NS5B RdRp enzyme assay (standard or modified)
# Type: biochemical
# Test Parameters: HCV NS5B RdRp genotype 1b; standard or modified enzyme assay not specified; read-out: IC50
pIC50: −log10 of the molar value.
Measured Quantity: pIC50

# Compound, pIC50
records = [
    ("COc1ccc2c(c1)C1CC1(C(=O)N(C)CC1CCCN1C)Cn1c-2c(C2CCCCC2)c2ccc(C(=O)NS(=O)(=O)N(C)C)cc21 (stereo not drawn)", "6.00 to 8.52"),
]

Report pIC50 under test system HCV NS5B (Hepatitis C virus genotype 1b, UniProt Q9WMX2) for COc1ccc2c(c1)C1CC1(C(=O)N(C)CC1(C3CCCCC3)CCCCC1)Cn1c-2c(C2CCCCC2)c2ccc(C(=O)NS(=O)(=O)N(C)C)cc21 (stereo not drawn) .
6.00 to 8.52

Give pIC50 for COc1ccc2c(c1)C1CC1(C(=O)N1CCCN(Cc3cccnc3)CC1)Cn1c-2c(C2CCCCC2)c2ccc(C(=O)NS(=O)(=O)C3CC3)cc21 (stereo not drawn) tested on HCV NS5B (Hepatitis C virus genotype 1b, UniProt Q9WMX2).
6.00 to 8.52

* * *

# Assay Target: HCV NS5B (Hepatitis C virus genotype 1b)
# Construct: The protein was expressed with an 18 amino acid C-terminal truncation to enhance the solubility; made in house; host or cells: E. coli BL21(DE3)
# Test Name: HCV NS5B RdRp enzyme assay (standard or modified)
# Type: biochemical
# Test Parameters: HCV NS5B RdRp genotype 1b; standard or modified enzyme assay not specified; read-out: IC50
Below is a list of entries, each paired with its recorded IC50 value.

Recorded IC50, per entry:
# Compound, Observed
rows = [
    ("COc1ccc2c(c1)C1CC1(C(=O)N1CCCN(C(=O)OC(C)(C)C)CC1)Cn1c-2c(C2CCCCC2)c2ccc(C(=O)NS(=O)(=O)N3CCC3)cc21 (stereo not drawn)", "3 to 1000 nM"),
    ("COc1ccc2c(c1)C1CC1(C(=O)N1CCN(C)C[C@H]1c1ccccc1)Cn1c-2c(C2CCCCC2)c2ccc(C(=O)NS(=O)(=O)C(C)C)cc21 (stereo partly drawn)", "3 to 1000 nM"),
]

Fill in IC50 for record COc1ccc2c(c1)C1CC1(C(=O)N1CCN(CC(=O)N3CCCC3)CC1)Cn1c-2c(C2CCCCC2)c2ccc(C(=O)NS(=O)(=O)C(C)C)cc21 (stereo not drawn)
3 to 1000 nM
